System: Noggin (protein binding on small-molecule microarray)
measurement_protocol: Noggin binders on small-molecule microarray, primary screen, biochemical, 635/667 nm fluorescence (AID 1095);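 note: score merges 667 nm feature fluorescence with signal to noise over triplicate slides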
condition_details: 635 nm fluorescence, higher = more signal
Record form. Attribute: composite z-score. Fill in for each entry.
One number for each entry.

Some compounds with known composite z-score results, for comparison:
C#CCCCON=C1C[C@@H](O)[C@@H](O)[C@@H]2[C@@H]3C(=O)N(c4ccc(F)cc4F)C(=O)[C@@H]3CC[C@@H]12
0.561
CCOC(=O)NN=C1C[C@@H](O)[C@@H](O)[C@@H]2[C@@H]3C(=O)N(C(C)(C)C)C(=O)[C@@H]3CC[C@H]12
0.708
CCOC(=O)C1=NO[C@]2(C=C(Br)C3(OCCCO3)[C@H]3O[C@H]32)C1
-0.519

Would you mind giving composite z-score for every compound in the list below?
1. CCCCC#C[C@@H]1C=C[C@H](Oc2ccc(C(=O)OC)cc2)[C@@H](COC(=O)OCC)O1
2. COc1cccc([C@H]2Oc3ccc(OC)cc3C(=NO[C@H](C)c3cn([C@H](CO)Cc4ccccc4)nn3)[C@@H]2O)c1
3. O=C1C2=CC[C@H]3C(=O)N(c4cccc(Oc5ccccc5)c4)C(=O)[C@H]3[C@H]2[C@H](O)[C@@H]2O[C@H]12
4. CCc1cc2c(nc1CC)CCN(CCC(C)=NO[C@@H](C)c1cn([C@H](CO)Cc3ccccc3)nn1)C2
5. CC(CCN1CCCc2nc(C)c(C)cc21)=NO[C@@H](C)c1cc(-c2c(C)cc(C)cc2C)no1

## Output
1: 0.198; 2: 0.259; 3: 0.744; 4: 0.42; 5: 0.308
